The origin of these recorded values is FireProtDB.

B1: Ribonuclease HI, P0A7Y4 (parent)
chain: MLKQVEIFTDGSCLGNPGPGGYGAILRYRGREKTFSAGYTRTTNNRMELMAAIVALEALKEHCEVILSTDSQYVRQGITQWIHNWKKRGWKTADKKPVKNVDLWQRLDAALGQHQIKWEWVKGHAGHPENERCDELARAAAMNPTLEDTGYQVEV

Variants of: B1
Details: Escherichia coli (strain K12); pH 5.5; Thermal; CD; Sodium acetate 20 mM; reversible: yes; structure 2RN2; whole UniProt chain shown
quantity-measured: unfolding enthalpy (van 't Hoff)
For clarity, give the value followed by its unit.

**Q:** Please report the recorded unfolding enthalpy (van 't Hoff) for H62P .
**A:** 102 kcal/mol

**Q:** Please report the recorded unfolding enthalpy (van 't Hoff) for K95G .
**A:** 90.4 kcal/mol

**Q:** Please report the recorded unfolding enthalpy (van 't Hoff) for K91R .
**A:** 96.2 kcal/mol

**Q:** Please report the recorded unfolding enthalpy (van 't Hoff) for D94E .
**A:** 92.9 kcal/mol

**Q:** Please report the recorded unfolding enthalpy (van 't Hoff) for K95A .
**A:** 96.4 kcal/mol

**Q:** Please report the recorded unfolding enthalpy (van 't Hoff) for Q113P .
**A:** 81 kcal/mol

**Q:** Please report the recorded unfolding enthalpy (van 't Hoff) for K95N .
**A:** 90 kcal/mol
